# System: L929
# protocol-summary: Anti-necroptotic activity in TZ-induced mouse L929 cells assessed as increase in cell viability preincubated with Z-VAD-FMK followed by mTNFalpha stimulation for 4 hrs and measured after compound addition by CellTiter-Lumi luminescent cell viability assay
# Format: functional, cell-based
recorded-endpoint: EC50

Solved cases (5 shown):
- COC(=O)[C@]12CCC(C)(C)C[C@H]1[C@H]1C(=O)C=C3[C@@]4(C)C5NC5C(=O)C(C)(C)[C@@H]4CC[C@@]3(C)[C@]1(C)CC2 (stereo partly specified): > 10 µM
- CC1(C)CC[C@]2(C(=O)n3ncc4ccccc43)CC[C@]3(C)[C@H](C(=O)C=C4[C@@]5(C)C=C(C#N)C(=O)C(C)(C)[C@@H]5CC[C@]43C)[C@@H]2C1: > 10 µM
- CC1(C)CC[C@]2(C(=O)Nc3ccc4scnc4c3)CC[C@]3(C)[C@H](C(=O)C=C4[C@@]5(C)C=C(C#N)C(=O)C(C)(C)[C@@H]5CC[C@]43C)[C@@H]2C1: 4.01 µM
- CC1(C)CC[C@]2(C(=O)N3CCC(c4ccccc4)CC3)CC[C@]3(C)[C@H](C(=O)C=C4[C@@]5(C)C=C(C#N)C(=O)C(C)(C)[C@@H]5CC[C@]43C)[C@@H]2C1: > 10 µM
- CC1(C)CC[C@]2(C(=O)Nc3ccc4[nH]ccc4c3)CC[C@]3(C)[C@H](C(=O)C=C4[C@@]5(C)C=C(C#N)C(=O)C(C)(C)[C@@H]5CC[C@]43C)[C@@H]2C1: > 10 µM

Turning to the following compound.
Please provide the recorded EC50 for CC1(C)CC[C@]2(C(=O)Nc3ccc4ncoc4c3)CC[C@]3(C)[C@H](C(=O)C=C4[C@@]5(C)C=C(C#N)C(=O)C(C)(C)[C@@H]5CC[C@]43C)[C@@H]2C1 , tested on L929.
2.84 µM

---

# protocol-summary: AUC (0 to 24 hrs) in Sprague-Dawley rat at 10 mg/kg, IG measured after 24 hrs by LC-MS/MS analysis
# Format: ADME, organism-based
# test-conditions: in vivo, po
recorded-endpoint: AUC(0-t) at 24 h (ng·h/mL)
One number for each entry, in ng·h/mL.

Quick one: AUC(0-t) at 24 h of Cn1ccc(-c2ccc(NC(=O)[C@]34CCC(C)(C)C[C@H]3[C@H]3C(=O)C=C5[C@@]6(C)C=C(C#N)C(=O)C(C)(C)[C@@H]6CC[C@@]5(C)[C@]3(C)CC4)cc2)n1 ?
1080

---

# System: HT-29
# protocol-summary: Anti-necroptotic activity in TSZ-induced human HT-29 cells assessed as increase in cell viability preincubated with Z-VAD-FMK and SM164 for 30 mins followed by TNFalpha stimulation for 12 hrs and measured after compound addition by CellTiter-Lumi luminescent cell viability assay
# Format: functional, cell-based
Answer each item with its documented EC50.
Answers are plain numbers, in µM.

Solved cases (2 shown):
• CC1(C)CC[C@]2(C(=O)Nc3ccc4c(c3)OCO4)CC[C@]3(C)[C@H](C(=O)C=C4[C@@]5(C)C=C(C#N)C(=O)C(C)(C)[C@@H]5CC[C@]43C)[C@@H]2C1 = 0.89
• CC1(C)CC[C@]2(C(=O)Nc3nc4ccccc4s3)CC[C@]3(C)[C@H](C(=O)C=C4[C@@]5(C)C=C(C#N)C(=O)C(C)(C)[C@@H]5CC[C@]43C)[C@@H]2C1 = 3.8

Turning to the following compound.
Quick one: EC50 of CC1(C)CC[C@]2(C(=O)N3CCC(c4ccccc4)C3)CC[C@]3(C)[C@H](C(=O)C=C4[C@@]5(C)C=C(C#N)C(=O)C(C)(C)[C@@H]5CC[C@]43C)[C@@H]2C1 (stereo partly drawn) ?
3.81
